# Tested on: Escherichia coli TOP10;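 also: peptides expressed intracellularly from a pBAD plasmid library in pooled LB shake-flask culture, induced with 0.3% L-arabinose, DNA abundance read by NGS, three biological replicates, DESeq2 with apeglm shrinkage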
# protocol-text: shrunken log2 fold change of peptide-encoding DNA abundance (4.5 h post-induction vs induction); higher = less antimicrobial activity (less host growth inhibition)
# condition-set: time post-induction: 4.5 h; library: site-saturation at positions 5, 18, 19, 20
Returns one of Satisfied or Not satisfied; Satisfied when shrunken log2 fold change is >= -0.08.

Worked cases, answers included:
| sequence-string | study-system | category |
| --- | --- | --- |
| RRIRERPPRLPRPRPRPCCDPRP | Escherichia coli TOP10 | Not satisfied |
| RRIRMRPPRLPRPRPRPGTFPRP | Escherichia coli TOP10 | Satisfied |
| RRIRVRPPRLPRPRPRPCQIPRP | Escherichia coli TOP10 | Not satisfied |
| RRIRIRPPRLPRPRPRPCCLPRP | Escherichia coli TOP10 | Not satisfied |
| RRIRDRPPRLPRPRPRPNCIPRP | Escherichia coli TOP10 | Satisfied |
| RRIRLRPPRLPRPRPRPQDFPRP | Escherichia coli TOP10 | Satisfied |

Q) Please indicate if the recorded shrunken log2 fold change for RRIRNRPPRLPRPRPRPTWSPRP meets or exceeds -0.08.
A) Not satisfied

Q) What do we get for RRIRVRPPRLPRPRPRPCTRPRP ?
A) Not satisfied

Q) What do we get for RRIRMRPPRLPRPRPRPTQNPRP ?
A) Satisfied
